B1: CLK3 (parent)
chain: FGEDYYGPSRSRHRRRSRERGPYR

Variants of: B1
run description: protein stability index of a GFP-peptide fusion (GPS, HEK-293T) (PSI 1-6); higher = more stable;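 also: lentivirally expressed fusions sorted by FACS into six bins by GFP to DsRed ratio, PSI derived from sequencing read proportions per bin multiplied by bin number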
reported conditions: c terminus: a fixed tail appended
Grouping by measured protein stability index is done with the following cut points: label 0: < 3; label 1: ≥ 3 and < 4; label 2: ≥ 4

Query block: Band for G7E ?
Result block: label 2

Query block: Band for P22A ?
Result block: label 0

Query block: Band for R10N ?
Result block: label 0

Query block: Band for R10E ?
Result block: label 1

Query block: Band for E19A ?
Result block: label 1

Query block: Band for Y23C ?
Result block: label 0

Query block: Band for P22G ?
Result block: label 0

Query block: Band for P8I ?
Result block: label 0

Query block: Band for P8T ?
Result block: label 0

Query block: Band for R12Y ?
Result block: label 0

Query block: Band for R18K ?
Result block: label 0

Query block: Band for Y5N ?
Result block: label 2

Query block: Band for S17L ?
Result block: label 0

Query block: Band for P22H ?
Result block: label 0

Query block: Band for G7D ?
Result block: label 1

Query block: Band for R18P ?
Result block: label 0

Query block: Band for R24Y ?
Result block: label 0

Query block: Band for D4N ?
Result block: label 0

Query block: Band for Y6D ?
Result block: label 2

Query block: Band for P22Q ?
Result block: label 0

Query block: Band for Y6P ?
Result block: label 2

Query block: Band for E3N ?
Result block: label 1

Query block: Band for F1D ?
Result block: label 2

Query block: Band for S9Y ?
Result block: label 0

Query block: Band for D4Q ?
Result block: label 0

Query block: Band for R12D ?
Result block: label 0

Query block: Band for G21H ?
Result block: label 1

Query block: Band for R12Q ?
Result block: label 0

Query block: Band for R15W ?
Result block: label 0

Query block: Band for E3W ?
Result block: label 1

Query block: Band for H13I ?
Result block: label 0

Query block: Band for Y5I ?
Result block: label 2

Query block: Band for R24T ?
Result block: label 0

Query block: Band for Y23T ?
Result block: label 0

Query block: Band for R16I ?
Result block: label 0

The reported numbers originate from the supplement of paper PMC10567573.
